EXPERIMENTAL SYSTEM: T1, CTNI quality control recombinant protein (PK2-CTNI-1, 170120, produced by the applicant) (human, UniProt P19429 2-210, limits assumed)
T1 construct: also called cardiac troponin I
T1 sequence (P19429 2-210 limits assumed): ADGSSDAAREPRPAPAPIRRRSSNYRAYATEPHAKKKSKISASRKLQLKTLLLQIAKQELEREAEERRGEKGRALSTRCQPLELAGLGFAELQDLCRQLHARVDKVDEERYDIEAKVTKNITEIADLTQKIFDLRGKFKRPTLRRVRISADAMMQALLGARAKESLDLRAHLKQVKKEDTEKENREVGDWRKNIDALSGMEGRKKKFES
EXPERIMENT DESCRIPTION: AMC sensor kinetics, antibody captured, cTnI analyte
PARAMETER: pKd
Note: pKd values are expressed as the negative base-10 logarithm of concentration in M.

Some entries whose results are on file:
Mutation 1-50 (antibody, V domains shown, built as for Mutation 1) VH: EVQLQQSGAELVKPGASVKLSCTASGFNLKDYFMHWMKQRTEQGLDWIGRIDPEDAETKYAPEFQGKATITADTSSNTAYLQLSTLTSEDTAVYYCARYYSSYIPFVYWGQGTLVTASA VL: DVVMTQTPLSLSVSLGDQASISCRSSQSILYSNRHTYLHWYLQKPGQSPKLLIFQISNRFSGVPDRFSGSGSGTDFTLKINRVEAEDLGVYFCSQSTHIPFTFGSGTKLEIKR ... 9.41
Mutation 1-22 (antibody, V domains shown, built as for Mutation 1) VH: EVQLQQSGAELVKPGASVKLSCTASGFNIKDYFMHWMKQRTEQGLDWIGRIDPEDGETRYAPEFQGKATITADTSSNTAYLQLSTLTSEDTAVYYCARYYSSYVPFVYWGQGTLVTASA VL: DVVMTQTPLSLSVSLGDQASISCRSSQSIIYSNRHTYLHWYLQKPGQSPKLLIFQVSNRFSGVPDRFSGSGSGTDFTLKINRVEAEDLGVYFCSQSTHLPYTFGSGTKLEIKR ... 9.14

// next entry
**Q:** Item under review: Mutation 1-34 (antibody, V domains shown, built as for Mutation 1) VH: EVQLQQSGAELVKPGASVKLSCTASGFNIKDYFMHWMKQRTEQGLDWIGRIDPEDGETKYAPEFQGKATITADTSSNTAYLQLSTLTSEDTAVYYCARYYSSYIPFVYWGQGTLVTASA VL: DVVMTQTPLSLSVSLGDQASISCRSSQSLLYSNRHTYLHWYLQKPGQSPKLLIFQISNRFSGVPDRFSGSGSGTDFTLKINRVEAEDLGVYFCSQSTHIPYTFGSGTKLEIKR . Reported pKd?
**A:** 8.85

Hello, the source for this data is patent US20210340231A1, in case you need it.
